Kindly supply the reported IC50 values for the records listed here.
target-or-system: human GPR68 (Homo sapiens, UniProt Q15743)
Construct: encoding full-length human GPR68 (uniprot ID: Q15743); expressed in transfected cells; host or cells: HEK293T
Sequence (Q15743 whole entry): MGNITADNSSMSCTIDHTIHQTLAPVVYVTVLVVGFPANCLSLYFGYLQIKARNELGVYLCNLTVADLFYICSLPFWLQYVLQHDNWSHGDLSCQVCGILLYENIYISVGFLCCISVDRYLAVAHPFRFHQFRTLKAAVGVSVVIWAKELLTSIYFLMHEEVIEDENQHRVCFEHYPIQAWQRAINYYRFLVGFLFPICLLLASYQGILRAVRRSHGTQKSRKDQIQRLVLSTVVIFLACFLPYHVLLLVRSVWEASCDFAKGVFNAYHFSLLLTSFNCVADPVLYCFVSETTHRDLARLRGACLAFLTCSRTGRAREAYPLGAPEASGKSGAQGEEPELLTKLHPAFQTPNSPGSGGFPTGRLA
test: GPR68 Biochemical Assay (Promega GloSensor cAMP assay, GPR68 antagonism)
Format: cell-based
condition-parameters: HEK293T cells transiently expressing hGPR68, antagonism of pH 5.5 stimulated cAMP, 15 min, read-out: hGPR68 IC50

Use the examples below as a reference point.
molecule: Cc1nc2c(C(=O)NC3CC(F)(F)C3)ccnn2c1C(N)=O
IC50: 50 to 500 nM
//
molecule: CSCc1nn2c(C(=O)NC3Cc4ccccc4C3)ccnc2c1C(N)=O
IC50: < 50 nM
//
molecule: NC(=O)c1c(CO)nn2c(C(=O)NC3CC(F)(F)C3)ccnc12
IC50: 500 to 5000 nM
//
molecule: COCc1nn2c(C(=O)NC3COc4ccccc4C3)ccnc2c1C(N)=O (centres unmarked)
IC50: 50 to 500 nM

Let us examine a further case.
-- ask Name the recorded IC50 for Cc1nn2c(C(=O)N[C@H]3C[C@@H](OC(F)(F)F)C3)ccnc2c1C(N)=O .
-- reply 50 to 500 nM

###

Please provide measured pIC50 for the entries that follow.
target-or-system: human GPR68 (Homo sapiens)
Construct: encoding full-length human GPR68 (uniprot ID: Q15743); expressed in transfected cells; host or cells: HEK293T
test: GPR68 Biochemical Assay (Promega GloSensor cAMP assay, GPR68 antagonism)
Type: cell-based
condition-parameters: HEK293T cells transiently expressing hGPR68, antagonism of pH 5.5 stimulated cAMP, 15 min, read-out: hGPR68 IC50
pIC50: −log10 of the molar value.

Dear colleague, could you send me pIC50 for each of the items below? Thanks.
1. COCc1nc2c(C(=O)NC3Cc4cc(F)cc(F)c4C3)ccnn2c1C(N)=O (stereo not drawn) [Compound 164]
2. Cc1nn2c(C(=O)NC3Cc4ccc(Cc5ccccc5)cc4C3)ccnc2c1C(N)=O (stereo not drawn) [Compound 51]

-- reply
> 7.30
4.30 to 5.30

Parameter requested: pIC50. Apply to each item below.
1. COCc1nn2c(C(=O)Nc3ccc(F)cc3F)ccnc2c1C(N)=O [Compound 68]
2. COCc1nn2c(C(=O)NC3Cc4ccccc43)ccnc2c1C(N)=O (stereo not drawn) [Compound 88]
3. NC(=O)c1cnn2c(C(=O)NC3COc4ccccc4C3)ccnc12 (stereo not drawn) [Compound 6]
4. Cc1cc(C(=O)NC2CC(F)(F)C2)n2nc(C)c(C(N)=O)c2n1 [Compound 42]

-- reply
1. > 7.30
2. > 7.30
3. 6.30 to 7.30
4. 6.30 to 7.30

Answer for every listed entry: what is its pIC50? The entries follow.
1. COCc1nn2c(C(=O)NC3CCc4cncn4C3)ccnc2c1C(N)=O (stereo not drawn) [Compound 188]
2. COCc1nn2c(C(=O)NC3CCC(C)(C)c4ccccc43)ccnc2c1C(N)=O (stereo not drawn) [Compound 186]
3. COCc1nn2c(C(=O)N[C@H]3CC(C)(C)c4ccccc43)ccnc2c1C(N)=O [Compound 198]

-- reply
["5.30 to 6.30", "5.30 to 6.30", "6.30 to 7.30"]
